Where do the numbers come from? From PubChem BioAssay.

- protocol-description: inhibitors of TNFa-induced NFkB p65 translocation, primary screen, imaging, HUVEC, MLSMR starter and 10KST1 sets (AID 438);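 further: compound added about 3h40 before a 20 min TNFalpha stimulation; signal is the nuclear over cytoplasmic p65 intensity ratio per well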
- condition-notes: HUVEC TNFa-induced p65 nuclear translocation; at 2 µM, hits give high values, 0% TNFa-plus-vehicle, 100% no-TNFa wells
Entries and their measured inhibition follow.
experimental-readout: inhibition (%)

>>> df
                                    compound  experimental_readout  unit_text  recorded_value
 0  O=C1N2c3ccccc3CCc3cccc(c32)C1(O)C(F)(F)F (centres undefined)            inhibition          %             4.7
 1        COc1cc2c(cc1OC)C1(CCCC1)C(N)=C2C#N            inhibition          %             2.5
 2  Cc1ccc(C(=O)NC(Cc2c[nH]c3ccccc23)C(=O)O)o1 (centres undefined)            inhibition          %             4.3
 3  CCOc1ccc(N=C2C(=O)N(CN3CCOCC3)c3ccccc32)cc1            inhibition          %            -4.3
 4          O=C(NCc1ccccc1)c1ccc(OC2CSC2)cc1            inhibition          %           -30.1
 5  Cc1nc2ccccc2c2oc(C(=O)N3CCC(N4CCCCC4)CC3)cc12            inhibition          %            -4.4
 6  O=C(COc1ccc(-c2nnc(N3CCCCC3)c3ccccc23)cc1)N1CCCCC1            inhibition          %             1.4
 7  CCC(C)(NC(=O)CNC(C)=O)C(=O)NC1CCCCC1 (centres undefined)            inhibition          %           -15.7
 8         CCCCCSc1nc(C)c(CC(=O)O)c(=O)[nH]1            inhibition          %            -8.8
 9  O=c1[nH]c(CN(CCO)CCO)nc2c1C1(CCCCC1)Cc1ccccc1-2            inhibition          %           -15.1
10            COc1cc(OC)cc(-c2nc(N)n[nH]2)c1            inhibition          %             3.7
11     O=C(NCc1ccco1)c1cc2cc3ccc(Cl)cc3nc2o1            inhibition          %            -4.9
12  Cc1nc(SCC(=O)Nc2ccc3c(c2)OCO3)c(C#N)c2c1CCCC2            inhibition          %             1.3
13                Cc1cc(C)nc(SCc2csc(N)n2)n1            inhibition          %            -3.6
14  CCN(CC)CCN1C(=O)C(O)=C(C(=O)c2cc3ccccc3o2)C1c1cccnc1 (centres undefined)            inhibition          %            -6.8
15                 O=C1CCCc2nc(N3CCCCC3)sc21            inhibition          %           -15.2
16          Cc1nnc(SCC(=O)N2CCOCC2)c2ccccc12            inhibition          %             7.8
17  CC12CCC(=O)N1c1c(sc3nc(N4CCOCC4)c4c(c13)CCCC4)C(=O)N2 (centres undefined)            inhibition          %             1.4
18              CCc1ccccc1NC(=O)CSc1ncn[nH]1            inhibition          %               9
19  COc1ccc(C(=O)Nc2ccccc2C(=O)NCCN2CCOCC2)cc1            inhibition          %            -2.2
20  CCOC(=O)CC12CN3CN(C1)CC(CC(=O)OCC)(C3)C2=O            inhibition          %           -28.6
21  O=C(O)C1C2C=CC3(CN(C4CCCC4)C(=O)C13)O2 (centres undefined)            inhibition          %            -3.4
22  COc1ccccc1N1C(=O)c2ccccc2NC1c1ccncc1 (centres undefined)            inhibition          %             5.6
23                 Cc1cc2nncn2c(Cc2ccccc2)n1            inhibition          %            -7.4

* * *

- protocol-description: inhibitors of E-selectin induction by TNFa, primary screen, imaging, HUVEC, immunofluorescence, MLSMR starter and 10KST1 sets (AID 487);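 further: signal is fraction of cell area covered by stained E-selectin grains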
- condition-notes: HUVEC TNFalpha-induced E-selectin immunofluorescence imaging, at 2 µM; hits give high values
Entries and their measured inhibition follow.
experimental-readout: inhibition (%)

>>> df
                                    compound  experimental_readout  unit_text  recorded_value
 0  CCC(C)(C(=O)NC1CCCCC1)N(Cc1ccco1)C(=O)c1ccc2c(c1)OCO2 (centres undefined)            inhibition          %            25.6
 1                    CNc1oc(-c2cccs2)nc1C#N            inhibition          %            -2.1
 2  COc1ccc2[nH]c(C)c(CCN3C(=O)OC(C)(C)C3(C)O)c2c1 (centres undefined)            inhibition          %            -2.5
 3  Cc1ccc(-n2ncc3c(NCCCOC(C)C)ncnc32)c(C)c1            inhibition          %            45.2
 4  Cc1ccccc1NC(=O)Cc1nnc(SCC(=O)N2CCN(c3ccccc3)CC2)n1C            inhibition          %             8.9
 5  Cc1ccccc1-n1c(=O)cc(N2CCN(C(=O)c3ccco3)CC2)[nH]c1=O            inhibition          %            -8.4
 6  CCC(C)(C(=O)NC1CCCCC1)N(Cc1ccco1)C(=O)c1cnccn1 (centres undefined)            inhibition          %           -23.4
 7                          Nc1nonc1N1CCCCC1            inhibition          %            27.5
 8  CCn1c(C(C#N)/C(=N\S(=O)(=O)c2cccs2)c2ccccc2)nc2ccccc21 (centres undefined)            inhibition          %            -188
 9  CCCCOC(=O)CSC1=C(C#N)C(c2ccc3c(c2)OCO3)CC(=O)N1 (centres undefined)            inhibition          %            -163
10  CCN(CC)CCCN1C(=O)C(=O)/C(=C(/O)c2ccc3c(c2)CC(C)O3)C1c1ccncc1 (centres undefined)            inhibition          %            -3.9
11                 Cn1c(=O)[nH]c2cc(Cl)cnc21            inhibition          %            -133
12       Cc1ccc(Cn2ncc3c(N4CCOCC4)ncnc32)cc1            inhibition          %            -9.4
13  CC1CN(c2nc(-c3ccccc3)nc3ccccc23)CC(C)O1 (centres undefined)            inhibition          %           -29.4
14                     CCCCSc1cc(C)nc2ncnn12            inhibition          %            12.1
15  Cc1ccc(-c2nnn(CC(=O)N(Cc3ccco3)C(C(=O)NC(C)(C)C)c3cccs3)n2)o1 (centres undefined)            inhibition          %           -43.9
16  CCCSc1nc(O)c(C2OC(=O)c3c2ccc(OC)c3OC)c(=O)n1C (centres undefined)            inhibition          %            29.6
17        CCOCCCNC(=O)CN1CCN(Cc2ccccc2C)C1=O            inhibition          %             -42
18                CCOC(=O)c1nnc(-c2ccccc2)o1            inhibition          %           -14.5
19           CSc1nc2[nH]c3c(c2c2ncnn12)CCCC3            inhibition          %            37.3
20               Cc1nnc(SCC(=O)NCc2ccccc2)s1            inhibition          %            10.5
21  CCOC(=O)c1[nH]c2ccc(F)cc2c1N=C(C)N(CC)CC            inhibition          %            -132
22  O=C(NCc1ccco1)C1(S(=O)(=O)c2ccc(Cl)cc2)CC1            inhibition          %            -100
23  Cc1ccsc1C(C(=O)NC1CCCCC1)N(C(=O)Cc1cccs1)C1CC1 (centres undefined)            inhibition          %           -62.9
